Compiled from multiple publications: pIC50 readings for Prostaglandin G/H synthase 2 (Mus musculus, UniProt Q05769).
pIC50: −log10 of the molar value.
Assay metric: pIC50

Request: Specify pIC50 for Cc1ccc(-c2[nH]c(-c3ccc(C)cc3)c3c2CCCC3)cc1 and stop.
Result: 7.78

1: CSC1=NC(=O)/C(=C/c2cc(C(C)(C)C)c(O)c(C(C)(C)C)c2)O1
2: CCOC(=O)Cc1cc(-c2ccc(F)c(F)c2)n(-c2ccc(S(C)(=O)=O)cc2)c1C
Request: When the recorded pIC50 values are compared, which is smaller: that of 1 or that of 2 ? In your reply, give the label of the chosen option.
Result: 2

====

pIC50: −log10 of the molar value.
Record: compiled pIC50 on Prostaglandin G/H synthase 2 (Mus musculus, UniProt Q05769) from multiple reports.
Sequence (Q05769 whole entry): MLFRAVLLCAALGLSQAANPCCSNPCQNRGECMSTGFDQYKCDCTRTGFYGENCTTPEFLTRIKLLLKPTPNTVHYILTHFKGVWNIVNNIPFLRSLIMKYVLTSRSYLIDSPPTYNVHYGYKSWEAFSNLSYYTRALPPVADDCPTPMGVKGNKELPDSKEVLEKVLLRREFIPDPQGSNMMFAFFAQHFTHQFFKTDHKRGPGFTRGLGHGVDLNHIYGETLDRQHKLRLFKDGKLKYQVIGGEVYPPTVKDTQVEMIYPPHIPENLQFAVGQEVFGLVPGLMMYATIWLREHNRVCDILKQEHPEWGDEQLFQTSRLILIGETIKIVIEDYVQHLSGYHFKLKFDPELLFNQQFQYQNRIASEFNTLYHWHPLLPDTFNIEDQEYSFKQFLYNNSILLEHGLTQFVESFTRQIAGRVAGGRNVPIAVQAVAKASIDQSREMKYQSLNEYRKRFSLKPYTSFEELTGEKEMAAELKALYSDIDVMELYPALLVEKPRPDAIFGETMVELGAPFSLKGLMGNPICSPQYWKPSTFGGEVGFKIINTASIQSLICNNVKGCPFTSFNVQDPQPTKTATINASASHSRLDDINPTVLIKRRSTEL

Check out these entries, answers already filled in.
Request: Report the value of pIC50 obtained on Prostaglandin G/H synthase 2 (Mus musculus, UniProt Q05769) for c1ccc(CN2Cc3c(-c4ccccc4)[nH]c(-c4ccccc4)c3C2)cc1 .
Result: < 7.00

Request: For Prostaglandin G/H synthase 2 (Mus musculus, UniProt Q05769), give the measured pIC50 of the entry CCSc1ncc(-c2ccc(S(C)(=O)=O)cc2)n1-c1ccc(OC)cc1
Result: < 4.60

Request: Provide the reported pIC50 (system: Prostaglandin G/H synthase 2 (Mus musculus, UniProt Q05769)) for COc1ccc(C2=C(c3ccc(C(F)(F)F)cc3)C(=O)OC2)cc1
Result: < 4.60

Request: Return reported pIC50 for target or system Prostaglandin G/H synthase 2 (Mus musculus, UniProt Q05769), item O=C(NS(=O)(=O)c1ccc(Br)cc1)c1cccc(C(=O)NS(=O)(=O)c2ccc(Br)cc2)n1 .
Result: 6.10

Request: Name the value of pIC50 reported for COc1ccc(C2=C(c3ccnc(F)c3)C(=O)OC2)cc1 when tested on Prostaglandin G/H synthase 2 (Mus musculus, UniProt Q05769).
Result: < 4.60

Others:
Request: For Prostaglandin G/H synthase 2 (Mus musculus, UniProt Q05769), give pIC50 of the listed molecule: Cc1ccc(C2=C(c3ccc(F)cc3)COC2=O)cc1
Result: < 4.60

Request: Please tell me the measured pIC50 for CSc1ncc(-c2ccc(S(C)(=O)=O)cc2)n1-c1ccc(Br)cc1 ; system: Prostaglandin G/H synthase 2 (Mus musculus, UniProt Q05769).
Result: < 4.60

Request: Fill: pIC50 (Prostaglandin G/H synthase 2 (Mus musculus, UniProt Q05769)) for this molecule Cc1c(CC(=O)O)c2cc(F)ccc2n1C(=O)c1ccc(Cl)cc1
Result: 7.05

Request: Report pIC50 under test system Prostaglandin G/H synthase 2 (Mus musculus, UniProt Q05769) for COc1ccc(C2=C(c3ccc(Oc4ccc(F)cc4)cc3)C(=O)OC2)cc1 .
Result: < 4.60

Request: With Prostaglandin G/H synthase 2 (Mus musculus, UniProt Q05769) as the test system, provide measured pIC50 for this molecule: CCOC(=O)Cc1cc(-c2ccc(S(C)(=O)=O)cc2)n(-c2ccc(F)cc2)c1C
Result: 8.00

Request: Give reported pIC50 for CCSc1ncc(-c2ccc(S(C)(=O)=O)cc2)n1-c1ccc(Br)cc1 (Prostaglandin G/H synthase 2 (Mus musculus, UniProt Q05769))
Result: < 4.60

Request: Answer with pIC50 of O=C(O)Cn1c(-c2ccccc2)c2c(c1-c1ccccc1)CCCC2 measured for Prostaglandin G/H synthase 2 (Mus musculus, UniProt Q05769).
Result: < 7.00

Request: Param request: pIC50 | system Prostaglandin G/H synthase 2 (Mus musculus, UniProt Q05769) | item Cc1ccc(C2=C(c3ccnc(F)c3)C(=O)OC2)cc1
Result: < 4.60
